# Experiment Notes: Competitive inhibition of Helicobacter pylori aminoacyl-tRNA […] GatCAB
Below, each entry is listed alongside its reported Ki.

{"columns": ["Molecule", "Measure Unit", "Ki"],
 "data": [
  ["CS(=O)(=O)CC[C@H](N)C(=O)N[C@H](CO)[C@H](O)c1ccc([N+](=O)[O-])cc1", "µM", 27],
  ["CS(=O)(=O)CC[C@H](N)C(=O)N[C@H](CO)[C@@H](O)c1ccc([N+](=O)[O-])cc1", "µM", 2800],
  ["CS(=O)(=O)CC[C@H](N)C(=O)N[C@H](CO)[C@H](O)c1ccc(S(C)(=O)=O)cc1", "µM", 120],
  ["CN(C)c1ncnc2c1ncn2[C@@H]1O[C@H](CO)[C@@H](NC(=O)[C@@H](N)CCS(C)(=O)=O)[C@H]1O", "µM", 4],
  ["CS(=O)(=O)CC[C@H](N)C(=O)N[C@H](CO)[C@H](O)c1ccccc1", "µM", 400],
  ["CS(=O)(=O)CC[C@H](N)C(=O)N[C@@H](CO)[C@@H](O)c1ccc([N+](=O)[O-])cc1", "µM", 160],
  ["CS(=O)(=O)CC[C@H](N)C(=O)N[C@@H](CO)[C@H](O)c1ccc([N+](=O)[O-])cc1", "µM", 370],
  ["O=C(N[C@H](CO)[C@H](O)c1ccc([N+](=O)[O-])cc1)C(Cl)Cl [CHLORAMPHENICOL]", "µM", 1850]
]}
